Listing: pEC50 of selected binders
target.desc: T1, human Claudin 18.2 (CLDN18.2) (human, UniProt P56856-2 1-261)
T1 construct: whole, on cells; recombinantly expressed on CHO, HEK293, NCI-N87, NUGC4 or PANC-1 cells; also called CHO-CLDN18.2
assay.details: FACS on CHO-CLDN18.2 cells
# pEC50: negative log10 of molar concentration; output just the value

• 413H9F8-cp7 (antibody, V domains shown, humanized IgG; constant regions not specified) VH: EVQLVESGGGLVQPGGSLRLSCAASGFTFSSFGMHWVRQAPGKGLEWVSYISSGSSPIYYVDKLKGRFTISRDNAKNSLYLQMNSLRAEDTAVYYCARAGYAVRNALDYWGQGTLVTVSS VL: DIVMTQSPPTLSLSPGERVTLSCKSSQSLLNVGNQKNYLAWYQQKPGQAPKLLIYGASTRESGIPDRFSGSGSGTDFTLTISSLQPEDFAVYYCQNDLFYPLTFGGGTKVEIK = 8.61
• 413H9F8-cp4 (antibody, V domains shown, humanized IgG; constant regions not specified) VH: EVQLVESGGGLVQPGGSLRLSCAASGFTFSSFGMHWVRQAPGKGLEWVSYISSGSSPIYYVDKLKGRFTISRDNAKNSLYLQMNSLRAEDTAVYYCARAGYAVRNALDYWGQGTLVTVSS VL: DIVMTQSPPTLSLSPGERVTLSCKSSQSLLNVGNQKNYLAWYQQKPGQAPRLLIYGASTRESGIPDRFSGSGSGTDFTLTISSLQPEDFAVYYCQNDLFYPLTFGGGTKVEIK = 8.64

Query block: Suppose we examine the binder 413H9F8-cp6 (antibody, V domains shown, humanized IgG; constant regions not specified) VH: DVQLVESGGGLVQPGGSLRLSCAASGFTFSSFGMHWVRQAPGKGLEWVAYISSGSSPIYYVDKLKGRFTVSRDNAKNSLYLQMNSLRAEDTAVYYCARAGYAVRNALDYWGQGTLVTVSS VL: DIVMTQSPPTLSLSPGERVTLSCKSSQSLLNVGNQKNYLAWYQQKPGQAPRLLIYGASTRESGIPDRFSGSGSGTDFTLTISSLQPEDFAVYYCQNDLFYPLTFGGGTKVEIK ; what pEC50 value has been reported?
Result block: 8.63

Query block: Here is the next binder: 413H9F8-cp11 (antibody, V domains shown, humanized IgG; constant regions not specified; also called 413H9F8-cp811) VH: DVQLVESGGGLVQPGGSLRLSCAASGFTFSSFGMHWVRQAPGKGLEWVAYISSGSSPIYYVDKLKGRFTISRDNAKNSLYLQMNSLRAEDTAVYYCARAGYAVRNALDYWGQGTLVTVSS VL: DIVMTQSPPTLSLSPGERVTLSCKSSQSLLNVGNQKNYLAWYQQKPGQAPKLLIYGASTRESGIPDRFSGSGSGTDFTLTISSLQPEDFAVYFCQNDLFYPLTFGGGTKVEIK
Result block: 8.58

Query block: Here is the next binder: 413H9F8-cp9 (antibody, V domains shown, humanized IgG; constant regions not specified) VH: DVQLVESGGGLVQPGGSLRLSCAASGFTFSSFGMHWVRQAPGKGLEWVAYISSGSSPIYYVDKLKGRFTVSRDNAKNSLYLQMNSLRAEDTAVYYCARAGYAVRNALDYWGQGTLVTVSS VL: DIVMTQSPPTLSLSPGERVTLSCKSSQSLLNVGNQKNYLAWYQQKPGQAPKLLIYGASTRESGIPDRFSGSGSGTDFTLTISSLQPEDFAVYYCQNDLFYPLTFGGGTKVEIK
Result block: 8.66

Query block: Here is the next binder: 413H9F8-cp12 (antibody, V domains shown, humanized IgG; constant regions not specified) VH: DVQLVESGGGLVQPGGSLRLSCAASGFTFSSFGMHWVRQAPGKGLEWVAYISSGSSPIYYVDKLKGRFTVSRDNAKNSLYLQMNSLRAEDTAVYYCARAGYAVRNALDYWGQGTLVTVSS VL: DIVMTQSPPTLSLSPGERVTLSCKSSQSLLNVGNQKNYLAWYQQKPGQAPKLLIYGASTRESGIPDRFSGSGSGTDFTLTISSLQPEDFAVYFCQNDLFYPLTFGGGTKVEIK
Result block: 8.52

Query block: Here is the next binder: hz282-11 (antibody, V domains shown, humanized IgG; constant regions not specified; also called humanized 282A12(T62A) (hz282-11)) VH: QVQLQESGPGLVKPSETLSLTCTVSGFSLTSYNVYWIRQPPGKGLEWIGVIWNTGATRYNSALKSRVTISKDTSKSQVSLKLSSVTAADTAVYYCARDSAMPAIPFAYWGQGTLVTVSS VL: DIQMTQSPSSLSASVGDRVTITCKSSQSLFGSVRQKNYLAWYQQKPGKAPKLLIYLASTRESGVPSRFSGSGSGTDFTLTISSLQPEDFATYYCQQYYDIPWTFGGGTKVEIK
Result block: 8.43
